The measured values listed here are drawn from PubChem BioAssay (NCI).

Tested on: NCI-H522 lung

# record-smiles, assay-system, GI50
data = [
    ("O=[N+]([O-])c1ccc(N/N=C/c2c(O)ccc3ccccc23)nc1", "NCI-H522 lung", "3740 nM"),
    ("C=C1C(=O)O[C@H]2[C@H]1CC/C(COC(=O)NCc1ccc(Cn3c(=O)sn(CCCCl)c3=O)cc1)=C\\CC[C@@]1(C)O[C@@H]21", "NCI-H522 lung", "538 nM"),
    ("O=C(c1ccc2ncc(-c3nc(NC4CC4)ncc3F)n2c1)N1CCOCC1", "NCI-H522 lung", "1990 nM"),
    ("O=C(Nc1ccc(F)cc1)c1c(NC(=O)C(F)(F)F)sc2c1CCCCC2", "NCI-H522 lung", "1330 nM"),
    ("Cc1nc2ccc(Nc3nc(NCCN4CCOCC4)nc(Nc4ccc(F)cc4)n3)cc2n1Cc1ccccc1", "NCI-H522 lung", "2920 nM"),
    ("ClC(Cl)c1nc(-c2cccnc2)n2nc(-c3ccccc3)cc2n1", "NCI-H522 lung", "1670 nM"),
    ("CC[C@@]1(O)C(=O)NCc2c1cc1n(c2=O)Cc2cc3c(N)cccc3nc2-1", "NCI-H522 lung", "176 nM"),
]

* * *

Test system: DLD-1 colon
measurement-description: NCI tumour cell line growth inhibition, 48 h
readout-type: TGI

# compound, assay-system, result
records = [
    ("CC(=O)OCC1OC(n2cc(F)c(=O)[nH]c2=O)C(N)C(OC(C)=O)C1OC(C)=O (stereo unspecified)", "DLD-1 colon", "> 100 µM"),
    ("CCN(CC)CCCOC(=O)/C=C/c1c(C)[nH]c(=O)[nH]c1=O", "DLD-1 colon", "> 625 µM"),
    ("COc1cccc(NC(=O)CC(=O)N2N=C(N(CCC#N)c3ccccc3C)CC2c2ccccc2)c1 (stereo unspecified)", "DLD-1 colon", "> 100 µM"),
    ("O=C(O)/C(=C/c1c(O)ccc2ccccc12)c1csc(-c2nc(/C(=C\\c3c(O)ccc4ccccc34)C(=O)O)cs2)n1", "DLD-1 colon", "35.5 µM"),
    ("COc1ccc2c(c1OC)C1=C(C2=O)c2cc3c(cc2CCN1)OCO3", "DLD-1 colon", "> 100 µM"),
    ("Cn1c(=O)nc2n(-c3cccc(F)c3)c3ccccc3nc-2c1=O", "DLD-1 colon", "> 100 µM"),
]

* * *

Test system: RPMI-8226 leukemia
measurement-description: NCI tumour cell line growth inhibition, 48 h

# molecule, assay-system, TGI
records = [
    ("COC1OC(CO)C(O)C(O)C1Br (stereo not drawn)", "RPMI-8226 leukemia", "> 100 µM"),
    ("N=c1nnc(=O)c2c(s1)-n1ncc(C(=O)O)c1NN2", "RPMI-8226 leukemia", "> 100 µM"),
    ("COc1cc(C2SCC(=O)N2c2ccc(-n3c(-c4ccccc4)nc4ccccc4c3=O)cc2)ccc1O (stereo not drawn)", "RPMI-8226 leukemia", "> 100 µM"),
]

* * *

Listing: TGI of selected compounds
Test system: PC-3 prostate
measurement-description: NCI tumour cell line growth inhibition, 48 h

# compound, assay-system, TGI
records = [
    ("CC[C@@]1(O)C(=O)NCc2c1cc1n(c2=O)Cc2cc3c(N)cccc3nc2-1", "PC-3 prostate", "> 55.4 µM"),
    ("C/C(=N/NC(=S)Nc1ccccc1Cl)c1cccc(/C(C)=N\\NC(=S)Nc2ccccc2Cl)n1", "PC-3 prostate", "> 100 µM"),
    ("CCCCc1c(C(=O)OC(C)(C)C)cc(C#Cc2cc(C(=O)OC(C)(C)C)c(CCCC)c(C(=O)OC(C)(C)C)c2)cc1C(=O)OC(C)(C)C", "PC-3 prostate", "> 100 µM"),
    ("Clc1ccc2sc(-n3ccc4ccccc43)nc2c1", "PC-3 prostate", "> 100 µM"),
    ("FC(F)(F)c1ccccc1N1CCN(c2nc(-c3cccs3)nc3ccc(Br)cc23)CC1", "PC-3 prostate", "49.5 µM"),
    ("COC(=O)c1sc(C(=O)OC)c2c1CSC2", "PC-3 prostate", "> 100 µM"),
    ("O=C(/C=C/c1cccc(Br)c1)c1cccs1", "PC-3 prostate", "31.6 µM"),
    ("O=C1CSC(/C(=C\\c2ccc(Cl)cc2)c2nc3ccccc3[nH]2)=N1", "PC-3 prostate", "36.5 µM"),
    ("CN1C(=S)C(c2ccccc2)Sc2ccccc21 (stereo unspecified)", "PC-3 prostate", "> 100 µM"),
    ("COC(=O)C1=C(C)NC2(O)C=CC(=O)C3C(=O)N(c4ccccc4)C(=O)C132 (stereo unspecified)", "PC-3 prostate", "> 100 µM"),
    ("O=C1C(F)=CC(COC(c2ccccc2)(c2ccccc2)c2ccccc2)OC1n1cc(F)c(=O)[nH]c1=O (stereo unspecified)", "PC-3 prostate", "4.69 µM"),
]
